Measured Kd values are reported for all entries that follow.
biological target: T1, human IGF2^1-67 (mature insulin-like growth factor 2) (human, UniProt P01344 25-91, biotinylated (site not stated) where immobilised on the chip (Tables 1-4)); experiment: SPR kinetic, biotin-IGF2 on chip, pH 7.4
T1 construct: mature; also called mature IGF2; biotinylated IGF2
T1 sequence (P01344 25-91): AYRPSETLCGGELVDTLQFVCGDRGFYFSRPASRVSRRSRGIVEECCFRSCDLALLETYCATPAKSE

domain 11^AB5 Q1569R (receptor, See m5) MKSNEHDDCQVTNPSTGHLFDLSSLSGRAGFTAAYAKGWGVYMSICGENENCPPGVGACFGRTRISVGKANKRLRYVDQVLQLVYKDGSPCPSKSGLSYKSVISFVCRPEAGPTNRPMLISLDKQTCTLFFSWHTPLACEQATECSV : 2.24 nM

Report measured Kd; entry is domain 11^AB5 P1597A (receptor, See m5) MKSNEHDDCQVTNPSTGHLFDLSSLSGRAGFTAAYAKGWGVYMSICGENENCPPGVGACFGQTRISVGKANKRLRYVDQVLQLVYKDGSACPSKSGLSYKSVISFVCRPEAGPTNRPMLISLDKQTCTLFFSWHTPLACEQATECSV
9.07 nM
